# credit: the supplement of paper PMC5998384

System: HeLa Kyoto
Test: melting temperature (median over replicates), in situ; higher = more thermally stable
Settings: cell cycle stage: mitosis
PROPERTY MEASURED: melting temperature
Put down the number, then write its unit next to it.

Worked examples, 4 sequences total:
Jot down melting temperature (HeLa Kyoto) of MVEKEEAGGGISEEEAAQYDRQIRLWGLEAQKRLRASRVLLVGLKGLGAEIAKNLILAGVKGLTMLDHEQVTPEDPGAQFLIRTGSVGRNRAEASLERAQNLNPMVDVKVDTEDIEKKPESFFTQFDAVCLTCCSRDVIVKVDQICHKNSIKFFTGDVFGYHGYTFANLGEHEFVEEKTKVAKVSQGVEDGPDTKRAKLDSSETTMVKKKVVFCPVKEALEVDWSSEKAKAALKRTTSDYFLLQVLLKFRTDKGRDPSSDTYEEDSELLLQIRNDVLDSLGISPDLLPEDFVRYCFSEMAPVCAVVGGILAQEIVKALSQRDPPHNNFFFFDGMKGNGIVECLGPK [SAE1] .
52.3 °C

# lookup: HeLa Kyoto melting temperature, key = MDLWPGAWMLLLLLFLLLLFLLPTLWFCSPSAKYFFKMAFYNGWILFLAVLAIPVCAVRGRNVENMKILRLMLLHIKYLYGIRVEVRGAHHFPPSQPYVVVSNHQSSLDLLGMMEVLPGRCVPIAKRELLWAGSAGLACWLAGVIFIDRKRTGDAISVMSEVAQTLLTQDVRVWVFPEGTRNHNGSMLPFKRGAFHLAVQAQVPIVPIVMSSYQDFYCKKERRFTSGQCQVRVLPPVPTEGLTPDDVPALADRVRHSMLTVFREISTDGRGGGDYLKKPGGGG [AGPAT1]
52.7 °C

Report value only: melting temperature, HeLa Kyoto, MEGQRWLPLEANPEVTNQFLKQLGLHPNWQFVDVYGMDPELLSMVPRPVCAVLLLFPITEKYEVFRTEEEEKIKSQGQDVTSSVYFMKQTISNACGTIGLIHAIANNKDKMHFESGSTLKKFLEESVSMSPEERARYLENYDAIRVTHETSAHEGQTEAPSIDEKVDLHFIALVHVDGHLYELDGRKPFPINHGETSDETLLEDAIEVCKKFMERDPDELRFNAIALSAA [UCHL3]
52.2 °C

State recorded melting temperature with HeLa Kyoto, entry MSLQWTAVATFLYAEVFVVLLLCIPFISPKRWQKIFKSRLVELLVSYGNTFFVVLIVILVLLVIDAVREIRKYDDVTEKVNLQNNPGAMEHFHMKLFRAQRNLYIAGFSLLLSFLLRRLVTLISQQATLLASNEAFKKQAESASEAAKKYMEENDQLKKGAAVDGGKLDVGNAEVKLEEENRSLKADLQKLKDELASTKQKLEKAENQVLAMRKQSEGLTKEYDRLLEEHAKLQAAVDGPMDKKEE [BCAP31] , no comment.
55.5 °C

Alright, here's another sequence for you.
Report value: melting temperature, system: HeLa Kyoto, sequence: MTERFDCHHCNESLFGKKYILREESPYCVVCFETLFANTCEECGKPIGCDCKDLSYKDRHWHEACFHCSQCRNSLVDKPFAAKEDQLLCTDCYSNEYSSKCQECKKTIMPGTRKMEYKGSSWHETCFICHRCQQPIGTKSFIPKDNQNFCVPCYEKQHAMQCVQCKKPITTGGVTYREQPWHKECFVCTACRKQLSGQRFTARDDFAYCLNCFCDLYAKKCAGCTNPISGLGGTKYISFEERQWHNDCFNCKKCSLSLVGRGFLTERDDILCPDCGKDI [FHL2]
51.9 °C

* * *

System: HeLa Kyoto
Experiment: thermal stability score vs G1/S (z-score of summed log2 fold changes over temperatures); higher = more thermally stable than in G1/S
Details: cell cycle stage: mitosis
For each of the sequences below, state its thermal stability score.
Answers are plain numbers.

Lab note: HeLa Kyoto assay, enter thermal stability score for MSIFTPTNQIRLTNVAVVRMKRAGKRFEIACYKNKVVGWRSGVEKDLDEVLQTHSVFVNVSKGQVAKKEDLISAFGTDDQTEICKQILTKGEVQVSDKERHTQLEQMFRDIATIVADKCVNPETKRPYTVILIERAMKDIHYSVKTNKSTKQQALEVIKQLKEKMKIERAHMRLRFILPVNEGKKLKEKLKPLIKVIESEDYGQQLEIVCLIDPGCFREIDELIKKETKGKGSLEVLNLKDVEEGDEKFE [SBDS] here
2.97

With those in mind, consider the next sequence.
GET thermal stability score where system = HeLa Kyoto and item = MATLRRLREAPRHLLVCEKSNFGNHKSRHRHLVQTHYYNYRVSFLIPECGILSEELKNLVMNTGPYYFVKNLPLHELITPEFISTFIKKGSCYALTYNTHIDEDNTVALLPNGKLILSLDKDTYEETGLQGHPSQFSGRKIMKFIVSIDLMELSLNLDSKKYERISWSFKEKKPLKFDFLLAWHKTGSEESTMMSYFSKYQIQEHQPKVALSTLRDLQCPVLQSSELEGTPEVSCRALELFDWLGAVFSNVDLNNEPNNFISTYCCPEPSTVVAKAYLCTITGFILPEKICLLLEHLCHYFDEPKLAPWVTLSVQGFADSPVSWEKNEHGFRKGGEHLYNFVIFNNQDYWLQMAVGANDHCPP [RPP40]
-4.46

* * *

Test system: HeLa Kyoto
Test: solubility change mitosis vs G1/S (difference of NP-40 vs SDS log2 ratios) (log2 ratio difference); higher = more soluble in mitosis
Consider the following sequences; for each one, report its solubility change mitosis (log2).

Look up solubility change mitosis (log2) of MRDRTHELRQGDDSSDEEDKERVALVVHPGTARLGSPDEEFFHKVRTIRQTIVKLGNKVQELEKQQVTILATPLPEESMKQELQNLRDEIKQLGREIRLQLKAIEPQKEEADENYNSVNTRMRKTQHGVLSQQFVELINKCNSMQSEYREKNVERIRRQLKITNAGMVSDEELEQMLDSGQSEVFVSNILKDTQVTRQALNEISARHSEIQQLERSIRELHDIFTFLATEVEMQGEMINRIEKNILSSADYVERGQEHVKTALENQKKARKKKVLIAICVSITVVLLAVIIGVTVVG [STX4] and report it.
0.0104

Give a short answer stating reported solubility change mitosis (log2) for MTVARPSVPAALPLLGELPRLLLLVLLCLPAVWGDCGLPPDVPNAQPALEGRTSFPEDTVITYKCEESFVKIPGEKDSVICLKGSQWSDIEEFCNRSCEVPTRLNSASLKQPYITQNYFPVGTVVEYECRPGYRREPSLSPKLTCLQNLKWSTAVEFCKKKSCPNPGEIRNGQIDVPGGILFGATISFSCNTGYKLFGSTSSFCLISGSSVQWSDPLPECREIYCPAPPQIDNGIIQGERDHYGYRQSVTYACNKGFTMIGEHSIYCTVNNDEGEWSGPPPECRGKSLTSKVPPTVQKPTTVNVPTTEVSPTSQKTTTKTTTPNAQATRSTPVSRTTKHFHETTPNKGSGTTSGTTRLLSGHTCFTLTGLLGTLVTMGLLT [CD55] .
-0.0285

Answer with reported solubility change mitosis (log2) of MDPRKVNELRAFVKMCKQDPSVLHTEEMRFLREWVESMGGKVPPATQKAKSEENTKEEKPDSKKVEEDLKADEPSSEESDLEIDKEGVIEPDTDAPQEMGDENAEITEEMMDQANDKKVAAIEALNDGELQKAIDLFTDAIKLNPRLAILYAKRASVFVKLQKPNAAIRDCDRAIEINPDSAQPYKWRGKAHRLLGHWEEAAHDLALACKLDYDEDASAMLKEVQPRAQKIAEHRRKYERKREEREIKERIERVKKAREEHERAQREEEARRQSGAQYGSFPGGFPGGMPGNFPGGMPGMGGGMPGMAGMPGLNEILSDPEVLAAMQDPEVMVAFQDVAQNPANMSKYQSNPKVMNLISKLSAKFGGQA [ST13]
0.103

New cases:
Please give measured solubility change mitosis (log2) of the following entry: MTTYSDKGAKPERGRFLHFHSVTFWVGNAKQATSFYCSKMGFEPLAYRGLETGSREVVSHVIKQGKIVFVLSSALNPWNKEMGDHLVKHGDGVKDIAFEVEDCDYIVQKARERGAKIMREPWVEQDKFGKVKFAVLQTYGDTTHTLVEKMNYIGQFLPGYEAPAFMDPLLPKLPKCSLEMIDHIVGNQPDQEMVSASEWYLKNLQFHRFWSVDDTQVHTEYSSLRSIVVANYEESIKMPINEPAPGKKKSQIQEYVDYNGGAGVQHIALKTEDIITAIRHLRERGLEFLSVPSTYYKQLREKLKTAKIKVKENIDALEELKILVDYDEKGYLLQIFTKPVQDRPTLFLEVIQRHNHQGFGAGNFNSLFKAFEEEQNLRGNLTNMETNGVVPGM [HPD]
-0.0296

* * *

Tested on: HeLa Kyoto
Assay: thermal stability score vs G1/S (z-score of summed log2 fold changes over temperatures); higher = more thermally stable than in G1/S
Conditions: cell cycle stage: mitosis
PROPERTY MEASURED: thermal stability score
Numbers only.

Provide only the value of recorded thermal stability score for MALVSADSRIAELLTELHQLIKQTQEERSRSEHNLVNIQKTHERMQTENKISPYYRTKLRGLYTTAKADAEAECNILRKALDKIAEIKSLLEERRIAAKIAGLYNDSEPPRKTMRRGVLMTLLQQSAMTLPLWIGKPGDKPPPLCGAIPASGDYVARPGDKVAARVKAVDGDEQWILAEVVSYSHATNKYEVDDIDEEGKERHTLSRRRVIPLPQWKANPETDPEALFQKEQLVLALYPQTTCFYRALIHAPPQRPQDDYSVLFEDTSYADGYSPPLNVAQRYVVACKEPKKK [SGF29]
-0.207

# ---- query sequence ----
// fetch thermal stability score given entry MIPLLLAALLCVPAGALTCYGDSGQPVDWFVVYKLPALRGSGEAAQRGLQYKYLDESSGGWRDGRALINSPEGAVGRSLQPLYRSNTSQLAFLLYNDQPPQPSKAQDSSMRGHTKGVLLLDHDGGFWLVHSVPNFPPPASSAAYSWPHSACTYGQTLLCVSFPFAQFSKMGKQLTYTYPWVYNYQLEGIFAQEFPDLENVVKGHHVSQEPWNSSITLTSQAGAVFQSFAKFSKFGDDLYSGWLAAALGTNLQVQFWHKTVGILPSNCSDIWQVLNVNQIAFPGPAGPSFNSTEDHSKWCVSPKGPWTCVGDMNRNQGEEQRGGGTLCAQLPALWKAFQPLVKNYQPCNGMARKPSRAYKI [DNASE2]
-2.33
